Data origin, for the record: patent US20210308103A1

Assay: Plasma pharmacokinetics in pigs after intravenous doxapram
Type: in vivo, pig
Details: pig, plasma, iv, 1.8 mg/kg body weight, pig 98, plasma, intravenous bolus of doxapram; read-out: T1/2 (converted)
Property name: half-life (h)
Express the result in h but write the number alone.

## Task Consider the compound CCN1CC(CCN2CCOCC2=O)C(c2ccccc2)(c2ccccc2)C1=O (centres unmarked) and give its measured half-life.
## Result 2.59

## Task Consider the compound CCN1CC(CCN2CCOCC2)C(c2ccccc2)(c2ccccc2)C1=O (centres unmarked) and give its measured half-life.
## Result 1.92

---

What AUC(0-inf) was measured for each of the following?
Test: Plasma pharmacokinetics in pigs after intravenous doxapram
Assay type: in vivo, pig
Details: pig, plasma, iv, 1.8 mg/kg body weight, average of pigs 98, 99, 100, plasma, intravenous bolus of doxapram
Please answer in the form of a number followed by its unit of measurement.

## Task Consider the compound CCN1CC(CCN2CCOCC2)C(c2ccccc2)(c2ccccc2)C1=O (centres unmarked) [doxapram] and give its measured AUC(0-inf).
## Result 2950 ng·h/mL

## Task Consider the compound CCN1CC(CCN2CCOCC2=O)C(c2ccccc2)(c2ccccc2)C1=O (centres unmarked) [ketodoxapram] and give its measured AUC(0-inf).
## Result 308 ng·h/mL

---

Assay: Plasma pharmacokinetics in pigs after intravenous doxapram
Assay type: in vivo, pig
Settings: pig, plasma, iv, 1.8 mg/kg body weight, pig 98, plasma, intravenous bolus of doxapram; read-out: AUC0-n
Property name: AUC (ng·h/mL)
Express the result in ng·h/mL but write the number alone.

## Task Consider the compound CCN1CC(CCN2CCOCC2=O)C(c2ccccc2)(c2ccccc2)C1=O (centres unmarked) [ketodoxapram] and give its measured AUC.
## Result 149

## Task Consider the compound CCN1CC(CCN2CCOCC2)C(c2ccccc2)(c2ccccc2)C1=O (centres unmarked) [doxapram] and give its measured AUC.
## Result 2180

---

Assay: Plasma pharmacokinetics in pigs after intravenous doxapram
Format: in vivo, pig
Details: pig, plasma, iv, 1.8 mg/kg body weight, pig 100, plasma, intravenous bolus of doxapram; read-out: AUC0-n
What AUC was measured for each of the following?
Express the result in ng·h/mL but write the number alone.

## Task Consider the molecule CCN1CC(CCN2CCOCC2=O)C(c2ccccc2)(c2ccccc2)C1=O (centres unmarked) and give its measured AUC.
## Result 254

## Task Consider the molecule CCN1CC(CCN2CCOCC2)C(c2ccccc2)(c2ccccc2)C1=O (centres unmarked) and give its measured AUC.
## Result 3470

---

Biological target: TASK-1 (Homo sapiens)
Sequence (O14649 whole entry): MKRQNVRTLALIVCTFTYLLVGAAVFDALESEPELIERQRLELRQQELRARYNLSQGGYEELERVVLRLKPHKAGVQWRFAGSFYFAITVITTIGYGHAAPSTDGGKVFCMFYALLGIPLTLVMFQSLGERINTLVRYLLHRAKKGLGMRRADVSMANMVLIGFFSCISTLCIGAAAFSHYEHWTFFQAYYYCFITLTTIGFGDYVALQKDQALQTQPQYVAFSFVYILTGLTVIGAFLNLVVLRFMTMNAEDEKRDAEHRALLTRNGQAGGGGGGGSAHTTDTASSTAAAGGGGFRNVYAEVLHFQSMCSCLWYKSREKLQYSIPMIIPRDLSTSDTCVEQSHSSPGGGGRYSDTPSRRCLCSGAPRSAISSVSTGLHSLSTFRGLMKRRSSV
Experiment: TASK-1 current inhibition, voltage clamp in Xenopus laevis oocytes (human channel)
Details: voltage clamp, Xenopus laevis oocytes, FIG. 1B/1C
Property name: IC50

## Task Consider the compound CCN1CC(CCN2CCOCC2=O)C(c2ccccc2)(c2ccccc2)C1=O (centres unmarked) [ketodoxapram] and give its measured IC50.
## Result 1.25 µM

## Task Consider the compound CCN1CC(CCN2CCOCC2)C(c2ccccc2)(c2ccccc2)C1=O (centres unmarked) [doxapram] and give its measured IC50.
## Result 0.5 µM

---

Experiment: Plasma pharmacokinetics in pigs after intravenous doxapram
Type: in vivo, pig
Details: pig, plasma, iv, 1.8 mg/kg body weight, average of pigs 98, 99, 100, plasma, intravenous bolus of doxapram
Property name: Cmax

## Task Consider the molecule CCN1CC(CCN2CCOCC2)C(c2ccccc2)(c2ccccc2)C1=O (centres unmarked) [doxapram] and give its measured Cmax.
## Result 4090 ng/mL

## Task Consider the molecule CCN1CC(CCN2CCOCC2=O)C(c2ccccc2)(c2ccccc2)C1=O (centres unmarked) [ketodoxapram] and give its measured Cmax.
## Result 47.9 ng/mL

---

What AUC was measured for each of the following?
Assay: Plasma pharmacokinetics in pigs after intravenous doxapram
Type: in vivo, pig
Conditions: pig, plasma, iv, 1.8 mg/kg body weight, average of pigs 98, 99, 100, plasma, intravenous bolus of doxapram; read-out: AUC0-n
Express the result in ng·h/mL but write the number alone.

## Task Consider the compound CCN1CC(CCN2CCOCC2)C(c2ccccc2)(c2ccccc2)C1=O (centres unmarked) and give its measured AUC.
## Result 2930

## Task Consider the compound CCN1CC(CCN2CCOCC2=O)C(c2ccccc2)(c2ccccc2)C1=O (centres unmarked) and give its measured AUC.
## Result 282

---

Assay: Plasma pharmacokinetics in pigs after intravenous doxapram
Format: in vivo, pig
Conditions: pig, plasma, iv, 1.8 mg/kg body weight, pig 100, plasma, intravenous bolus of doxapram
Description: FIG. 3: Pharmacokinetics of doxapram and ketodoxapram in pigs after intravenous administration. Concentration of doxapram and ketodoxapram, respectively, as measured in plasma samples taken at the indicated time points. […] Analysis of doxapram and ketodoxapram in tissues. Mass spectrometry, in particular liquid chromatography tandem-mass spectrometry (LC-MS/MS) with deuterated internal standard, was used to quantify the concentrations of doxapram and ketodoxapram in tissue samples and plasma. […]
What AUC(0-inf) was measured for each of the following?
Express the result in ng·h/mL but write the number alone.

## Task Consider the compound CCN1CC(CCN2CCOCC2=O)C(c2ccccc2)(c2ccccc2)C1=O (centres unmarked) [ketodoxapram] and give its measured AUC(0-inf).
## Result 265

## Task Consider the compound CCN1CC(CCN2CCOCC2)C(c2ccccc2)(c2ccccc2)C1=O (centres unmarked) [doxapram] and give its measured AUC(0-inf).
## Result 3480

---

What AUC(0-inf) was measured for each of the following?
Test: Plasma pharmacokinetics in pigs after intravenous doxapram
Assay type: in vivo, pig
Conditions: pig, plasma, iv, 1.8 mg/kg body weight, pig 98, plasma, intravenous bolus of doxapram
Express the result in ng·h/mL but write the number alone.

## Task Consider the compound CCN1CC(CCN2CCOCC2=O)C(c2ccccc2)(c2ccccc2)C1=O (centres unmarked) [ketodoxapram] and give its measured AUC(0-inf).
## Result 157

## Task Consider the compound CCN1CC(CCN2CCOCC2)C(c2ccccc2)(c2ccccc2)C1=O (centres unmarked) [doxapram] and give its measured AUC(0-inf).
## Result 2200

---

Assay: in vivo
Settings: pig, iv, Brain concentration as percentage of plasma concentration
From the text: FIG. 4: Quantification of doxapram and ketodoxapram in porcine tissue samples. A) doxapram and ketodoxapram were quantified in brain tissue samples (CNS) and plasma samples of two pigs; B) Concentrations of doxapram and ketodoxapram in brain tissues of pigs treated with doxapram, which was metabolized to ketodoxapram. […] Quantification of ketodoxapram and doxapram in porcine tissues. […]
Property name: Kp
Field format: numeric only.

## Task Consider the compound CCN1CC(CCN2CCOCC2)C(c2ccccc2)(c2ccccc2)C1=O (stereo not shown) [doxapram] and give its measured Kp.
## Result 0.0024

---

What half-life was measured for each of the following?
Experiment: Plasma pharmacokinetics in pigs after intravenous doxapram
Format: in vivo, pig
Conditions: pig, plasma, iv, 1.8 mg/kg body weight, pigs, intravenous bolus of doxapram, summary of Table 1; read-out: Elimination half-life

## Task Consider the compound CCN1CC(CCN2CCOCC2=O)C(c2ccccc2)(c2ccccc2)C1=O (centres unmarked) and give its measured half-life.
## Result 2 to 3 h

## Task Consider the compound CCN1CC(CCN2CCOCC2)C(c2ccccc2)(c2ccccc2)C1=O (centres unmarked) and give its measured half-life.
## Result 2 to 3 h

---

What Cmax was measured for each of the following?
Experiment: Plasma pharmacokinetics in pigs after intravenous doxapram
Type: in vivo, pig
Conditions: pig, plasma, iv, 1.8 mg/kg body weight, pig 100, plasma, intravenous bolus of doxapram
Express the result in ng/mL but write the number alone.

## Task Consider the compound CCN1CC(CCN2CCOCC2=O)C(c2ccccc2)(c2ccccc2)C1=O (centres unmarked) and give its measured Cmax.
## Result 48.3

## Task Consider the compound CCN1CC(CCN2CCOCC2)C(c2ccccc2)(c2ccccc2)C1=O (centres unmarked) and give its measured Cmax.
## Result 4900

---

Assay: Plasma pharmacokinetics in pigs after intravenous doxapram
Format: in vivo, pig
Settings: pig, plasma, iv, 1.8 mg/kg body weight, pig 99, plasma, intravenous bolus of doxapram; read-out: T1/2 (converted)
What half-life was measured for each of the following?
Express the result in h but write the number alone.

## Task Consider the compound CCN1CC(CCN2CCOCC2=O)C(c2ccccc2)(c2ccccc2)C1=O (centres unmarked) [ketodoxapram] and give its measured half-life.
## Result 3.48

## Task Consider the compound CCN1CC(CCN2CCOCC2)C(c2ccccc2)(c2ccccc2)C1=O (centres unmarked) [doxapram] and give its measured half-life.
## Result 2.65

---

Assay: Plasma pharmacokinetics in pigs after intravenous doxapram
Assay type: in vivo, pig
Details: pig, plasma, iv, 1.8 mg/kg body weight, pig 99, plasma, intravenous bolus of doxapram
Property name: Cmax (ng/mL)
Express the result in ng/mL but write the number alone.

## Task Consider the compound CCN1CC(CCN2CCOCC2=O)C(c2ccccc2)(c2ccccc2)C1=O (centres unmarked) and give its measured Cmax.
## Result 63.5

## Task Consider the compound CCN1CC(CCN2CCOCC2)C(c2ccccc2)(c2ccccc2)C1=O (centres unmarked) and give its measured Cmax.
## Result 5060

---

What half-life was measured for each of the following?
Experiment: Plasma pharmacokinetics in pigs after intravenous doxapram
Type: in vivo, pig
Settings: pig, plasma, iv, 1.8 mg/kg body weight, pig 100, plasma, intravenous bolus of doxapram; read-out: T1/2 (converted)
Express the result in h but write the number alone.

## Task Consider the compound CCN1CC(CCN2CCOCC2)C(c2ccccc2)(c2ccccc2)C1=O (centres unmarked) [doxapram] and give its measured half-life.
## Result 1.79

## Task Consider the compound CCN1CC(CCN2CCOCC2=O)C(c2ccccc2)(c2ccccc2)C1=O (centres unmarked) [ketodoxapram] and give its measured half-life.
## Result 2.36
